Entry source: the supplement of paper PMC10307832

relative viability: recorded values
# Tested on: NCI-H2342
# TEST_DETAILS: relative viability (nuclei count vs DMSO), 5 days (fraction); higher = more cells survive
# CONDITION_INFO: first compound 0.8 µM
No unit in the answer, please; the number alone is enough.

INSERT INTO results (compound, experimental_system, readout_number) VALUES
  ('O=c1[nH]c2ccccc2n1C1CCN(CCCC(c2ccc(F)cc2)c2ccc(F)cc2)CC1 [Pimozide] + Cc1nc(Nc2ncc(C(=O)Nc3c(C)cccc3Cl)s2)cc(N2CCN(CCO)CC2)n1 [Dasatinib] (partner 0.075 µM)', 'NCI-H2342', 0.339);

relative viability reported for this compound Cc1cnc(-c2cnc(NCCNc3ccc(C#N)cn3)nc2-c2ccc(Cl)cc2Cl)[nH]1 + O=C(c1cc(Cc2n[nH]c(=O)c3ccccc23)ccc1F)N1CCN(C(=O)C2CC2)CC1 [Olaparib] (partner 8 µM) : 0.43

For record Cc1cnc(-c2cnc(NCCNc3ccc(C#N)cn3)nc2-c2ccc(Cl)cc2Cl)[nH]1 + CC(=O)c1c(C)c2cnc(Nc3ccc(N4CCNCC4)cn3)nc2n(C2CCCC2)c1=O [Palbociclib] (partner 0.5 µM) the listed relative viability is 0.557

Short answer for Cc1cnc(-c2cnc(NCCNc3ccc(C#N)cn3)nc2-c2ccc(Cl)cc2Cl)[nH]1 + NC(=O)Nc1cc(-c2cccc(F)c2)sc1C(=O)N[C@H]1CCCNC1 [AZD7762] (partner 0.2 µM) : relative viability was 0.484

###

# Tested on: EMC-BAC-2
# TEST_DETAILS: relative viability (nuclei count vs DMSO), 5 days (fraction); higher = more cells survive
# CONDITION_INFO: first compound 4 µM
Attribute: relative viability
Enter a number only.

// solved cases for relative viability follow
INSERT INTO assay_data (compound, readout_number) VALUES
  ('Cc1sc2c(c1C)C(c1ccc(Cl)cc1)=N[C@@H](CC(=O)OC(C)(C)C)c1nnc(C)n1-2 [JQ1] + Cc1nc(Nc2ncc(C(=O)Nc3c(C)cccc3Cl)s2)cc(N2CCN(CCO)CC2)n1 [Dasatinib] (partner 0.075 µM)', 0.371),
  ('Cc1sc2c(c1C)C(c1ccc(Cl)cc1)=N[C@@H](CC(=O)OC(C)(C)C)c1nnc(C)n1-2 [JQ1] + O=C(c1cc(Cc2n[nH]c(=O)c3ccccc23)ccc1F)N1CCN(C(=O)C2CC2)CC1 [Olaparib] (partner 8 µM)', 0.259),
  ('Cc1sc2c(c1C)C(c1ccc(Cl)cc1)=N[C@@H](CC(=O)OC(C)(C)C)c1nnc(C)n1-2 [JQ1] + CS(=O)(=O)N1CCN(Cc2cc3nc(-c4cccc5[nH]ncc45)nc(N4CCOCC4)c3s2)CC1 [Pictilisib] (partner 1 µM)', 0.26);

Turning now to a further record.
Item: Cc1sc2c(c1C)C(c1ccc(Cl)cc1)=N[C@@H](CC(=O)OC(C)(C)C)c1nnc(C)n1-2 [JQ1] + COc1cccc2cc(-c3nc([C@H]4CC[C@H](C(=O)O)CC4)n4ncnc(N)c34)[nH]c12 [OSI-027] (partner 0.5 µM) | relative viability: 0.224

###

# System: NCI-H358
# TEST_DETAILS: relative viability (nuclei count vs DMSO), 5 days (fraction); higher = more cells survive
# CONDITION_INFO: first compound 500 µM
Please assign 0.0 whenever relative viability is at or above 0.03, and 1.0 whenever it is below.

Look over these answered cases.
INSERT INTO assay_data (compound, class_label) VALUES
  ('O=C(O)CCCCC(CCSCc1ccccc1)SCc1ccccc1 (stereo not given) [CPI-613] + N=C(N)NC(=N)NCCc1ccccc1 [Phenformin] (partner 250 µM)', 1.0),
  ('O=C(O)CCCCC(CCSCc1ccccc1)SCc1ccccc1 (stereo not given) [CPI-613] + Nc1nc2[nH]cc(CCc3ccc(C(=O)N[C@@H](CCC(=O)O)C(=O)O)cc3)c2c(=O)[nH]1 [Pemetrexed] (partner 0.2 µM)', 1.0),
  ('O=C(O)CCCCC(CCSCc1ccccc1)SCc1ccccc1 (stereo not given) [CPI-613] + COc1cc2c(Oc3ccc(NC(=O)C4(C(=O)Nc5ccc(F)cc5)CC4)cc3F)ccnc2cc1OCCCN1CCOCC1 [Foretinib] (partner 0.25 µM)', 0.0);

Does the reported relative viability of O=C(O)CCCCC(CCSCc1ccccc1)SCc1ccccc1 (stereo not given) [CPI-613] + CS(=O)(=O)CCNCc1ccc(-c2ccc3ncnc(Nc4ccc(OCc5cccc(F)c5)c(Cl)c4)c3c2)o1 [Lapatinib] (partner 2 µM) stay below 0.03? 0.0

Threshold test, relative viability < 0.03: O=C(O)CCCCC(CCSCc1ccccc1)SCc1ccccc1 (stereo not given) [CPI-613] + C[C@]1(O)C[C@@H](c2nc(-c3ccc4ccc(-c5ccccc5)nc4c3)c3c(N)nccn32)C1 [Linsitinib] (partner 1 µM) 0.0
